Known MIC of a selection of compounds
# System: Escherichia coli
# PROCEDURE_SUMMARY: Antimicrobial activity against Escherichia coli MRY05-3283 expressing qepA and rmtB gene by agar dilution CLSI method
# Format: functional

C[C@@H](O)[C@H]1C(=O)N2C(C(=O)O)=C(SCCNC=N)C[C@H]12 [IMIPENEM ANHYDROUS]    0.13 µg/mL
NC[C@H]1O[C@H](O[C@H]2[C@H](O)[C@@H](O[C@H]3O[C@H](CO)[C@@H](O)[C@H](N)[C@H]3O)[C@H](N)C[C@@H]2N)[C@H](N)C[C@@H]1O    > 128 µg/mL
CO/N=C(\C(=O)N[C@@H]1C(=O)N2C(C(=O)O)=C(COC(C)=O)CS[C@H]12)c1csc(N)n1    0.13 µg/mL
C[C@H]1COc2c(N3CCN(C)CC3)c(F)cc3c(=O)c(C(=O)O)cn1c23.C[C@H]1COc2c(N3CCN(C)CC3)c(F)cc3c(=O)c(C(=O)O)cn1c23.O    128 µg/mL
NCC[C@H](O)C(=O)N[C@@H]1C[C@H](N)[C@@H](O[C@H]2O[C@H](CN)[C@@H](O)[C@H](O)[C@H]2O)[C@H](O)[C@H]1O[C@H]1O[C@H](CO)[C@@H](O)[C@H](N)[C@H]1O    > 128 µg/mL
CC(C)(O/N=C(\C(=O)N[C@@H]1C(=O)N2C(C(=O)[O-])=C(C[n+]3ccccc3)CS[C@H]12)c1csc(N)n1)C(=O)O    0.5 µg/mL

// next item, MIC requested
Prompt line: For the compound `CCn1cc(C(=O)O)c(=O)c2cc(F)c(N3CCNCC3)cc21` , report MIC.
Response line: > 128 µg/mL

Data origin: ChEMBL document CHEMBL1255325
